Cited source for all entries: patent US5212182A

tested on: writhing response induced by bradykinin in mice; assay: Bradykinin-induced Writhing in Mice; type: in vivo, mice (male CD-1); settings: 30 mg/kg i.p.
Kindly supply the reported BK Induced Writhing in Mice, % inhibition values for the records listed here.
Dear colleague, please return just the value in %, with no unit written.

// recorded BK Induced Writhing in Mice, % inhibition for O=C(NC1CCN(Cc2ccccc2)CC1)c1ccc(/C=C/c2ccnc3ccccc23)cc1 [Example 12] : 10.0

// recorded BK Induced Writhing in Mice, % inhibition for O=C(NC1CCN(Cc2ccccc2)CC1)c1ccc(OCc2ccc3ccccc3n2)cc1 [Example 2] : 40.0

// recorded BK Induced Writhing in Mice, % inhibition for O=C(NC1CCN(Cc2ccccc2)CC1)c1cccc(OCc2ccnc3ccccc23)c1 [Example 5] : 31.0

// recorded BK Induced Writhing in Mice, % inhibition for O=C(NC1CCN(Cc2ccccc2)CC1)c1ccc(OCc2ccnc3ccccc23)cc1 [Example 1] : 40.0

---

Molecular target: BK2 receptor sites in guinea pig ileum (Cavia porcellus, UniProt O70526)
Construct: The distal portion of the ileum is removed and placed in ice cold homogenization buffer; from tissue; host or cells: distal ileum of adult male Hartley guinea pigs (animals from Charles River), washed membrane homogenate
Sequence (O70526 1-372): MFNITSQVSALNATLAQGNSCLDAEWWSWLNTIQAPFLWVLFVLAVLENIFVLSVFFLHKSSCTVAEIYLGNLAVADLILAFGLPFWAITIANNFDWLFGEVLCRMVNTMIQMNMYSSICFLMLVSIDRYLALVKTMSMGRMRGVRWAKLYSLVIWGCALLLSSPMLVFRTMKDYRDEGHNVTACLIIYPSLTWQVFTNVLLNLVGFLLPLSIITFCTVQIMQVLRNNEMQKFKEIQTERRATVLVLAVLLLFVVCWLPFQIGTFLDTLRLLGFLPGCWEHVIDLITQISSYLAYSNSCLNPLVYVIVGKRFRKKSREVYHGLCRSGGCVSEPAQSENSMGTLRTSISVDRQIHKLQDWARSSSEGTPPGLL
Experiment: Bradykinin Receptor Binding Assay (3H-BK Binding, G. P. Ileum)
Parameters: species or system guinea pig (Hartley strain)
Conditions: 10 μM; 80 pM 3H-BK
We use 30% as the dividing line for inhibition at 10 µM: on or above the line is Condition met, below is Condition not met.

Problem: Please tell me: is the compound c1ccc(CN2CCC(NCc3ccc(OCc4ccnc5ccccc45)cc3)CC2)cc1 at or over 30% in terms of inhibition at 10 µM?
Result: Condition not met

Problem: Please tell me: is the compound O=C(NC1CCN(Cc2ccccc2)CC1)c1ccc(/C=C\c2ccnc3ccccc23)cc1 at or over 30% in terms of inhibition at 10 µM?
Result: Condition met

Problem: Please tell me: is the compound CCCCN1CCC(NC(=O)c2ccc(OCc3ccc4ccccc4n3)cc2)CC1 at or over 30% in terms of inhibition at 10 µM?
Result: Condition not met

Problem: Please tell me: is the compound O=C(NC1CCN(Cc2ccccc2)CC1)c1cccc(OCc2ccnc3ccccc23)c1 at or over 30% in terms of inhibition at 10 µM?
Result: Condition met

Problem: Please tell me: is the compound O=C(NC1CCN(Cc2ccccc2)CC1)c1ccccc1OCc1ccc2ccccc2n1 at or over 30% in terms of inhibition at 10 µM?
Result: Condition not met

Problem: Please tell me: is the compound O=C(NC1CCN(Cc2ccccc2)CC1)c1ccc(NCc2ccnc3ccccc23)cc1 at or over 30% in terms of inhibition at 10 µM?
Result: Condition not met

Problem: Please tell me: is the compound CCCCN1CCC(NC(=O)c2cccc(OCc3ccnc4ccccc34)c2)CC1 at or over 30% in terms of inhibition at 10 µM?
Result: Condition not met

Problem: Please tell me: is the compound O=C(NC1CCN(Cc2ccccc2)CC1)c1ccccc1OCc1ccnc2ccccc12 at or over 30% in terms of inhibition at 10 µM?
Result: Condition not met
